measurement-notes: Ratio of AUC in C57BL/6 mouse brain to plasma at 10 mg/kg, po administered as single dose
Type: ADME, organism-based
cond: read-out: Ratio AUC
measure-name: Kp
One number for each entry.

// returns reported Kp for input CC(C)(O)c1cccc(-c2ccc3nc(-c4ccc(Cl)cc4)cn3c2)c1
0.8

---

measurement-notes: Clearance in human hepatocytes assessed per million cells
Format: ADME, cell-based, Hepatocyte
Exercise: for every item that follows, state its recorded CLH.
One number for each entry, in mL/h.

Answered examples (5):
CC(C)(O)c1cccc(-c2ccc3nc(-c4ccc(Cl)cc4)cn3c2)c1 :: 0.051
CC(O)c1cccc(-c2ccc3nc(-c4ccc(Cl)cc4)cn3c2)c1 (single isomer, unassigned; (+)) :: 0.45
OCc1cccc(-c2ccc3nc(-c4ccc(Cl)cc4)cn3c2)c1 :: 0.42
OCc1cccc(-c2ccc3nc(-c4ccc(Cl)cc4)cn3c2)c1F :: 0.188
O=C(Nc1ccccc1)c1cn2cc(-c3ccccn3)ccc2n1 :: 0.128

// returns reported CLH for input OCc1c(F)ccc(-c2ccc3nc(-c4ccc(Cl)cc4)cn3c2)c1F
0.1368

Source: ChEMBL document CHEMBL4368940
